# maps each entry to its phenotypically active
tested on: WPMY1-CANX-COX4; test: phenotypically active (imaging signature differs from DMSO and reproducible) at any of 0.3-9 uM (binary (1 = active, 0 = inactive)); higher = active; settings: treatment time: 24 h
Could you keep your reply to the number by itself?

{"compound": "CC[C@H]1OC(=O)[C@H](C)[C@@H](O[C@H]2C[C@@](C)(OC)[C@@H](O)[C@H](C)O2)[C@H](C)[C@@H](O[C@@H]2O[C@H](C)C[C@H](N(C)C)[C@H]2O)[C@](C)(O)C[C@@H](C)C(=O)[C@H](C)[C@@H](O)[C@]1(C)O", "phenotypically active": 0}
{"compound": "O=C1c2c(O)ccc(O)c2C(=O)c2c(NCCNCCO)ccc(NCCNCCO)c21", "phenotypically active": 1}
{"compound": "CC(C)(C)NCC(O)c1ccc(O)c(CO)c1 (configuration not stated)", "phenotypically active": 0}

Query: Fill in the recorded phenotypically active for this compound, with WPMY1-CANX-COX4 as test system: `COc1c(C=O)c(O)cc2c1C(=O)c1ccccc1C2=O`
Reply: 1

Query: Fill in the recorded phenotypically active for this compound, with WPMY1-CANX-COX4 as test system: COC(=O)C1CC23C=CCN4CCC5(c6ccccc6NC15[C@H]2C)C43 (some centres not stated) [Vindolinine dichlorhydrate]
Reply: 0

Query: Fill in the recorded phenotypically active for this compound, with WPMY1-CANX-COX4 as test system: `Nc1nnc(-c2cccc(Cl)c2Cl)c(N)n1`
Reply: 0

Query: Fill in the recorded phenotypically active for this compound, with WPMY1-CANX-COX4 as test system: `CCN(CCO)CCCOc1ccc2c(Nc3cc(CC(=O)Nc4cccc(F)c4)n[nH]3)ncnc2c1`
Reply: 1

###

test system: HepG2-TUBA1B-RELA; experiment: lowest phenotypically active concentration; higher = less potent; conditions: treatment time: 24 h
attributeMeasured: lowest phenotypically active concentration (µM)
Give a bare numeral; the unit µM is implied.

Examples with their reported lowest phenotypically active concentration follow.
{"compound": "Cc1nc(NC(=O)N2CCC[C@H]2C(N)=O)sc1-c1ccnc(C(C)(C)C(F)(F)F)c1", "quantityUnit": "µM", "recordedValue": 1}
{"compound": "Cc1ccc(NC(=O)c2ccc(CN3CCN(C)CC3)cc2)cc1Nc1nc(-c2cccnc2)cs1", "quantityUnit": "µM", "recordedValue": 9}
{"compound": "CC(=O)NC1=NN(C(C)=O)C(C)(c2ccccc2)S1 (stereo not given)", "quantityUnit": "µM", "recordedValue": 3}
{"compound": "O=c1[nH]cc(F)c(=O)[nH]1", "quantityUnit": "µM", "recordedValue": 3}
{"compound": "O=C1NC(=O)C(c2ccccc2[N+](=O)[O-])=C1Nc1ccc(O)c(Cl)c1", "quantityUnit": "µM", "recordedValue": 3}

Query: What does the data say about its lowest phenotypically active concentration? Entry: `O=C1NCCCc2c1oc1ccc(O)cc21`
Reply: 9

Query: What does the data say about its lowest phenotypically active concentration? Entry: `Cc1cc2c(s1)Nc1ccccc1N=C2N1CCN(C)CC1`
Reply: 9

###

test system: HepG2-TP53BP1-CLTA; experiment: lowest phenotypically active concentration; higher = less potent; conditions: treatment time: 24 h
Counter-ions that a name gives are not always drawn.
# maps each entry to its lowest phenotypically active concentration
Give a bare numeral; the unit µM is implied.

Examples with their reported lowest phenotypically active concentration follow.
{"compound": "CC(C)OC(=O)c1cc2c(OCC(O)CNC(C)(C)C)cccc2[nH]1 (stereo not given)", "testedOn": "HepG2-TP53BP1-CLTA", "quantityUnit": "µM", "recordedValue": 3}
{"compound": "Cc1ccc2nc(NCCN)c3ncc(C)n3c2c1", "testedOn": "HepG2-TP53BP1-CLTA", "quantityUnit": "µM", "recordedValue": 3}
{"compound": "CCCCNNC(=O)c1ccc(Br)cc1", "testedOn": "HepG2-TP53BP1-CLTA", "quantityUnit": "µM", "recordedValue": 1}
{"compound": "Cc1noc(C)c1Cn1cc(C#N)c2cc(Oc3ccc(NC(=O)[C@@H]4CCCN4)cc3)ccc21", "testedOn": "HepG2-TP53BP1-CLTA", "quantityUnit": "µM", "recordedValue": 9}
{"compound": "Nc1ncnc2c1nc(Cl)n2C1O[C@H](CO)[C@@H](O)[C@H]1O (stereo not given in full) [8-Chloroadenosine]", "testedOn": "HepG2-TP53BP1-CLTA", "quantityUnit": "µM", "recordedValue": 3}

Query: What does the data say about its lowest phenotypically active concentration? Entry: O=C1NC(=O)[C@@H](c2cn3c4c(cccc24)CCC3)[C@@H]1c1c[nH]c2ccccc12 [tivantinib]
Reply: 1

Query: What does the data say about its lowest phenotypically active concentration? Entry: COc1cc2c(cc1-c1c(C)noc1C)ncc1[nH]c(=O)n([C@H](C)c3ccccn3)c12 [I-BET 151 dihydrochloride]
Reply: 3

###

# maps each entry to its phenotypically active
test system: WPMY1-TP53BP1-CLTA; test: phenotypically active (imaging signature differs from DMSO and reproducible) at any of 0.3-9 uM (binary (1 = active, 0 = inactive)); higher = active; details: treatment time: 24 h
Could you keep your reply to the number by itself?

{"compound": "O=C(O)c1ccc(Nc2ncc3c(n2)-c2ccc(Cl)cc2C(c2c(F)cccc2F)=NC3)cc1", "testedOn": "WPMY1-TP53BP1-CLTA", "attributeMeasured": "phenotypically active", "recordedValue": 1}

Query: What does the data say about its phenotypically active? Entry: CCN(CC)CCCC(C)Nc1ccnc2cc(Cl)ccc12 (centres undefined)
Reply: 1

Query: What does the data say about its phenotypically active? Entry: `CCOC(=O)C1=C[C@]2(CC)CCCN3CCc4c(n1c1ccccc41)[C@@H]32`
Reply: 0

Query: What does the data say about its phenotypically active? Entry: O=C1CC(c2ccc(O)cc2)Oc2cc(O)cc(O)c21 (centres undefined)
Reply: 0

Query: What does the data say about its phenotypically active? Entry: `COc1ccc(-c2ccc3ncc4c(c3c2)n(-c2ccc(N3CCNCC3)c(C(F)(F)F)c2)c(=O)n4C)cn1`
Reply: 1

Query: What does the data say about its phenotypically active? Entry: `CCN1C(C)(C)CC(Oc2ccc(C(=O)Nc3ccc(NC(=O)Nc4cc(C(C)(C)C)on4)cc3)nc2)CC1(C)C`
Reply: 0

Query: What does the data say about its phenotypically active? Entry: `CCc1nn(CCCN2CCN(c3cccc(Cl)c3)CC2)c(=O)n1CCOc1ccccc1`
Reply: 0

Query: What does the data say about its phenotypically active? Entry: `CC(C)(C)c1ccc(S(=O)(=O)/C=C/C#N)cc1`
Reply: 1

Query: What does the data say about its phenotypically active? Entry: `CC(C)(C)n1nc(-c2ccc(Cl)cc2)c2c(N)ncnc21`
Reply: 0

###

# maps each entry to its phenotypically active
system: WPMY1-GM130-SQSTM1; assay: phenotypically active (imaging signature differs from DMSO and reproducible) at any of 0.3-9 uM (binary (1 = active, 0 = inactive)); higher = active; conditions: treatment time: 24 h
Could you keep your reply to the number by itself?

{"compound": "CC(C)C(=O)c1c(C(C)C)nn2ccccc12 [Ibudilast]", "phenotypically active": 0}
{"compound": "C#Cc1cccc(Nc2ncnc3cc(OCCOC)c(OCCOC)cc23)c1 [erlotinib]", "phenotypically active": 0}
{"compound": "Cc1ccc2ccc(C(Nc3ccccc3)c3ccccc3)c(O)c2n1 (stereo not given)", "phenotypically active": 0}
{"compound": "COc1ccccc1OCC(O)COC(N)=O (stereo not given) [methocarbamol]", "phenotypically active": 0}

Query: What does the data say about its phenotypically active? Entry: CN(C)CCCN1c2ccccc2CCc2ccc(Cl)cc21 [clomipramine]
Reply: 1

Query: What does the data say about its phenotypically active? Entry: CS(=O)(=O)OCCCCOS(C)(=O)=O [busulfan]
Reply: 0

Query: What does the data say about its phenotypically active? Entry: `Oc1ccc(-c2nc(-c3ccc(F)cc3)c(-c3ccncc3)[nH]2)cc1`
Reply: 1

Query: What does the data say about its phenotypically active? Entry: O=C1N(c2ccccc2)c2ccccc2C1(Cc1ccncc1)Cc1ccncc1 [linopirdine]
Reply: 0

Query: What does the data say about its phenotypically active? Entry: O=C1c2c(O)ccc(O)c2C(=O)c2c(NCCNCCO)ccc(NCCNCCO)c21 [mitoxantrone]
Reply: 1

Query: What does the data say about its phenotypically active? Entry: O=C1Cc2cc(CCN3CCN(c4nsc5ccccc45)CC3)c(Cl)cc2N1 [ziprasidone]
Reply: 0

###

system: WPMY1-GM130-SQSTM1; experiment: phenotypically active (imaging signature differs from DMSO and reproducible) at any of 0.3-9 uM (binary (1 = active, 0 = inactive)); higher = active; settings: treatment time: 24 h
Answer with one of the outcomes given here: 1 (yes) = active, 0 (no) = inactive

{"compound": "Cc1cc(Nc2ccc(NC(=O)c3ccc(Nc4ccnc5ccccc45)cc3)cc2)nc(N)n1", "testedOn": "WPMY1-GM130-SQSTM1", "classLabel": "1 (yes)"}

Query: Entry `CCNC(=O)c1noc(-c2cc(C(C)C)c(O)cc2O)c1-c1ccc(CN2CCOCC2)cc1` : call = ?
Reply: 1 (yes)

Query: Entry `Cc1ccc(-c2csc3ncnc(SCCC(=O)O)c23)cc1` : call = ?
Reply: 0 (no)

Query: Entry `CNC(=O)c1ccc(C)c(-n2c(C)cc(OCc3ccc(F)cc3F)c(Br)c2=O)c1` : call = ?
Reply: 0 (no)

Query: Entry COc1c(OC2OC(CO)[C@@H](O)[C@H](O)[C@H]2O)cc2c(c1OC)-c1ccc(OC)c(=O)cc1[C@@H](NC(C)=O)CC2 (stereo not given in full) [Colchicoside] : call = ?
Reply: 0 (no)
